- system-under-test: ATP-dependent translocase ABCB1 (Homo sapiens, UniProt P08183)
- experiment-notes: Direct comparison of the antifungal activities with the relative Pgp-inhibitory potencies, calculated by comparing ug/mL IC50(or IC20).
- Format: functional
reported-metric: Pgp AbA/analogue ratio

[
  {
    "smiles-text": "CC[C@@H](C)[C@@H]1NC(=O)[C@@H]2CCCN2C(=O)[C@H](Cc2ccccc2)N(C)C(=O)[C@H](C2CCCCC2)NC(=O)[C@H](C(C)C)N(C)C(=O)[C@@H]([C@@H](C)CC)OC(=O)[C@H](C(C)(C)O)N(C)C(=O)[C@H](CC(C)C)NC(=O)[C@H](C(C)C)N(C)C1=O",
    "measured-value": 0.5
  },
  {
    "smiles-text": "CC[C@@H](C)[C@@H]1NC(=O)[C@@H]2CCCN2C(=O)[C@H](Cc2ccccc2)N(C)C(=O)[C@H](Cc2ccccc2)NC(=O)[C@H](C(C)C)N(C)C(=O)[C@@H]([C@@H](C)CC)OC(=O)C(=C(C)C)N(C)C(=O)[C@H](CC(C)C)NC(=O)[C@H](C(C)C)N(C)C1=O",
    "measured-value": 12.5
  },
  {
    "smiles-text": "CC[C@H](C)[C@@H]1NC(=O)[C@@H]2CCCN2C(=O)[C@@H](C)N(C)C(=O)[C@H](Cc2ccc(OCC3CCCCC3)cc2)NC(=O)[C@H](C(C)C)N(C)C(=O)[C@@H]([C@@H](C)CC)OC(=O)[C@H](C(C)(C)O)N(C)C(=O)[C@H](CC(C)C)NC(=O)[C@H](C(C)C)N(C)C1=O",
    "measured-value": 1
  },
  {
    "smiles-text": "CC[C@@H](C)[C@@H]1NC(=O)[C@@H]2CCCN2C(=O)[C@H](Cc2ccccc2)N(C)C(=O)[C@H](Cc2ccccc2)NC(=O)[C@H](C(C)C)N(C)C(=O)[C@@H](C(C)C)OC(=O)[C@H](C(C)(C)O)N(C)C(=O)[C@H](CC(C)C)NC(=O)[C@H](C(C)C)N(C)C1=O",
    "measured-value": 2.1
  }
]

###

- system-under-test: P-glycoprotein (ABCB1, MDR1) (Homo sapiens)
- Sequence (P08183 whole entry): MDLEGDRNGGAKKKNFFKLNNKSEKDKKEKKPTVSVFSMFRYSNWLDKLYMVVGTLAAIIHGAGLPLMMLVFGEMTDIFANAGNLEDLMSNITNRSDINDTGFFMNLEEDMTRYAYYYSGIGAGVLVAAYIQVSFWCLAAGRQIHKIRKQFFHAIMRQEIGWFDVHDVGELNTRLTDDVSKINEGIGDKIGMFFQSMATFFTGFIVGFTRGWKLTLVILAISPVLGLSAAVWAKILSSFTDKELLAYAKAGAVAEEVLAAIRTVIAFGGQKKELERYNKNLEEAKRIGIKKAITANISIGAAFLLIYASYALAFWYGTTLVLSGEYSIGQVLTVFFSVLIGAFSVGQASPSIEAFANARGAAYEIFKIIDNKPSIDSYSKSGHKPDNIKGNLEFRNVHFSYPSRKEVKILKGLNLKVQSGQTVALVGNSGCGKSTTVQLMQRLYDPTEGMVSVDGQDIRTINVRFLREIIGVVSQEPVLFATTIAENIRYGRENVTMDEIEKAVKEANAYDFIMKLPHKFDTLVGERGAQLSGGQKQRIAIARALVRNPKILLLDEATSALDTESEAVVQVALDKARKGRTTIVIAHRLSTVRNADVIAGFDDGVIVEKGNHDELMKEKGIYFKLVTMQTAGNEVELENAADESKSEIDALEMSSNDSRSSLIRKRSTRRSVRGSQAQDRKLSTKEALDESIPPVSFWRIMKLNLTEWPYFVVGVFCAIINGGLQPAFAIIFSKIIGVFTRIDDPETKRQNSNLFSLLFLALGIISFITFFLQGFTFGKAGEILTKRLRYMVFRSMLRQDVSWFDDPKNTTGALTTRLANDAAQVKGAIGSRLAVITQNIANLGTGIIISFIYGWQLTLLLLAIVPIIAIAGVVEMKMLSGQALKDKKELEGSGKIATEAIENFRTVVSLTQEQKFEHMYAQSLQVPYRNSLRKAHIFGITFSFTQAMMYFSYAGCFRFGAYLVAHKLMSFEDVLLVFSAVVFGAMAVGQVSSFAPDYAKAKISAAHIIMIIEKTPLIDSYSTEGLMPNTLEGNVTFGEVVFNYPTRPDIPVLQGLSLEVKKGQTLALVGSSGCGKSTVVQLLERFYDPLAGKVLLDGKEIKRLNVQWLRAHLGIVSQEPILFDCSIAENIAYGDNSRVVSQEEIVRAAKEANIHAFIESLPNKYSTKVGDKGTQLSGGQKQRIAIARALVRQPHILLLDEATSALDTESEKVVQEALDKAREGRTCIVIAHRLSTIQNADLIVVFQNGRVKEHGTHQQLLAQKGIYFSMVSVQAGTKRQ
- experiment-notes: Human MDR1 Pgp inhibitory activity by using standard calcein-AM efflux method with the human leukemia CEM cells.
- Type: cell-based, CCRF-CEM
- test-parameters: probe calcein-AM
Square brackets hold non-standard residues; d marks the D form. Peptide text beside a SMILES is read from it. Hmp(2R,3S) = CC[C@H](C)[C@@H](O)C(=O)O; NMeVal(β-OH) = CN[C@H](C(=O)O)C(C)(C)O; NMeF = CN[C@@H](Cc1ccccc1)C(=O)O; NMeV = CN[C@H](C(=O)O)C(C)C
Returns Satisfied if the recorded IC20 is greater than or equal to 500 nM, and Not satisfied otherwise.

[
  {
    "compound": "CC[C@H](C)[C@@H]1NC(=O)[C@@H]2CCCN2C(=O)[C@H](Cc2ccccc2)N(C)C(=O)[C@H](Cc2ccccc2)NC(=O)[C@H](C(C)C)N(C)C(=O)[C@@H]([C@@H](C)CC)OC(=O)[C@@H](C(C)(C)O)N(C)C(=O)[C@H](CC(C)C)NC(=O)[C@H](C(C)C)N(C)C1=O",
    "system-under-test": "P-glycoprotein (ABCB1, MDR1) (Homo sapiens)",
    "category": "Not satisfied"
  },
  {
    "compound": "CC[C@H](C)[C@@H]1NC(=O)[C@@H]2CCCN2C(=O)[C@H](Cc2ccccc2)N(C)C(=O)[C@H](Cc2ccccc2)NC(=O)[C@H](C(C)C)N(C)C(=O)[C@@H]([C@@H](C)CC)OC(=O)[C@H](C(C)(C)O)N(C)C(=O)[C@H](CC(C)C)NC(=O)[C@H](C(C)C)N(C)C1=O",
    "system-under-test": "P-glycoprotein (ABCB1, MDR1) (Homo sapiens)",
    "category": "Satisfied"
  },
  {
    "compound": "CC[C@H](C)[C@@H]1NC(=O)[C@@H]2CCCN2C(=O)[C@@H](Cc2ccccc2)N(C)C(=O)[C@H](Cc2ccccc2)NC(=O)[C@H](C(C)C)N(C)C(=O)[C@@H]([C@@H](C)CC)OC(=O)[C@H](C(C)(C)O)N(C)C(=O)[C@H](CC(C)C)NC(=O)[C@H](C(C)C)N(C)C1=O",
    "system-under-test": "P-glycoprotein (ABCB1, MDR1) (Homo sapiens)",
    "category": "Satisfied"
  },
  {
    "compound": "CC[C@@H](C)[C@@H]1NC(=O)[C@@H]2CCCN2C(=O)[C@H](Cc2ccccc2)N(C)C(=O)[C@H](Cc2ccccc2)NC(=O)[C@H](C(C)C)N(C)C(=O)[C@@H]([C@@H](C)CC)OC(=O)C(=C(C)C)N(C)C(=O)[C@H](CC(C)C)NC(=O)[C@H](C(C)C)N(C)C1=O",
    "system-under-test": "P-glycoprotein (ABCB1, MDR1) (Homo sapiens)",
    "category": "Not satisfied"
  },
  {
    "compound": "CC[C@H](C)[C@H]1OC(=O)[C@H](C(C)(C)O)N(C)C(=O)[C@H](CC(C)C)NC(=O)[C@H](C(C)C)N(C)C(=O)[C@H](C(C)C)NC(=O)[C@@H]2CCCN2C(=O)[C@H](Cc2ccccc2)N(C)C(=O)[C@H](Cc2ccccc2)NC(=O)[C@H](C(C)C)N(C)C1=O (cyclo(F[NMeF]PV[NMeV]L[NMeVal(β-OH)][Hmp(2R,3S)][NMeV]))",
    "system-under-test": "P-glycoprotein (ABCB1, MDR1) (Homo sapiens)",
    "category": "Not satisfied"
  },
  {
    "compound": "CC[C@@H](C)[C@@H]1NC(=O)[C@@H]2CCCN2C(=O)[C@H](Cc2ccccc2)N(C)C(=O)[C@H](Cc2ccccc2)NC(=O)[C@H](C(C)C)N(C)C(=O)[C@@H]([C@@H](C)CC)OC(=O)[C@H](C(C)(C)O)N(C)C(=O)[C@H](CC(C)C)NC(=O)C(C(C)C)OC1=O (some centres not stated)",
    "system-under-test": "P-glycoprotein (ABCB1, MDR1) (Homo sapiens)",
    "category": "Not satisfied"
  },
  {
    "compound": "CC[C@H](C)[C@@H]1NC(=O)[C@@H]2CCCN2C(=O)[C@@H](C)N(C)C(=O)[C@H](Cc2ccc(OCC3CCCCC3)cc2)NC(=O)[C@H](C(C)C)N(C)C(=O)[C@@H]([C@@H](C)CC)OC(=O)[C@H](C(C)(C)O)N(C)C(=O)[C@H](CC(C)C)NC(=O)[C@H](C(C)C)N(C)C1=O",
    "system-under-test": "P-glycoprotein (ABCB1, MDR1) (Homo sapiens)",
    "category": "Satisfied"
  }
]

###

Overview of recorded Pgp AbA/analogue ratio for various compounds
- system-under-test: ATP-dependent translocase ABCB1 (Homo sapiens)
- experiment-notes: Direct comparison of the antifungal activities with the relative Pgp-inhibitory potencies, calculated by comparing ug/mL IC50(or IC20).
- Assay type: functional
Square brackets hold non-standard residues; d marks the D form. Peptide text beside a SMILES is read from it. Hmp(2R,3S) = CC[C@H](C)[C@@H](O)C(=O)O; NMeVal(β-OH) = CN[C@H](C(=O)O)C(C)(C)O; NMeF = CN[C@@H](Cc1ccccc1)C(=O)O; NMeV = CN[C@H](C(=O)O)C(C)C
reported-metric: Pgp AbA/analogue ratio

[
  {
    "compound": "CC[C@H](C)[C@@H]1NC(=O)[C@@H]2CCCN2C(=O)[C@@H](C)N(C)C(=O)[C@H](Cc2ccc(O)cc2)NC(=O)[C@H](C(C)C)N(C)C(=O)[C@@H]([C@@H](C)CC)OC(=O)[C@H](C(C)(C)O)N(C)C(=O)[C@H](CC(C)C)NC(=O)[C@H](C(C)C)N(C)C1=O",
    "measured-value": 0.4
  },
  {
    "compound": "CC[C@H](C)[C@H]1OC(=O)[C@H](C(C)(C)O)N(C)C(=O)[C@H](CC(C)C)NC(=O)[C@H](C(C)C)N(C)C(=O)[C@H](C(C)C)NC(=O)[C@@H]2CCCN2C(=O)[C@H](Cc2ccccc2)N(C)C(=O)[C@H](Cc2ccccc2)NC(=O)[C@H](C(C)C)N(C)C1=O (cyclo(F[NMeF]PV[NMeV]L[NMeVal(β-OH)][Hmp(2R,3S)][NMeV]))",
    "measured-value": 1.8
  }
]

###

- system-under-test: ATP-dependent translocase ABCB1 (Homo sapiens)
- experiment-notes: Direct comparison of the antifungal activities with the relative Pgp-inhibitory potencies, calculated by comparing ug/mL IC50(or IC20).
- Assay type: functional
Each entry below lists one item and its recorded Pgp AbA/analogue ratio value.

[
  {
    "compound": "CC[C@H](C)[C@@H]1NC(=O)[C@@H]2CCCN2C(=O)[C@@H](C)N(C)C(=O)[C@H](CO)NC(=O)[C@H](C(C)C)N(C)C(=O)[C@@H]([C@@H](C)CC)OC(=O)[C@H](C(C)(C)O)N(C)C(=O)[C@H](CC(C)C)NC(=O)[C@H](C(C)C)N(C)C1=O",
    "Pgp AbA/analogue ratio": "< 0.1"
  },
  {
    "compound": "CC[C@@H](C)[C@@H]1NC(=O)[C@@H]2CCCN2C(=O)[C@H](Cc2ccccc2)N(C)C(=O)[C@H](Cc2ccccc2)NC(=O)[C@H](C(C)C)N(C)C(=O)[C@@H]([C@@H](C)CC)OC(=O)[C@H](C(C)(C)O)N(C)C(=O)[C@H](CC(C)C)NC(=O)C(C(C)C)OC1=O (some centres undefined)",
    "Pgp AbA/analogue ratio": 1.4
  },
  {
    "compound": "CC[C@@H](C)[C@@H]1NC(=O)[C@@H]2CCCN2C(=O)[C@H]([C@H](O)c2ccccc2)N(C)C(=O)[C@H](Cc2ccccc2)NC(=O)[C@H](C(C)C)N(C)C(=O)[C@@H]([C@@H](C)CC)OC(=O)[C@H](C(C)C)N(C)C(=O)[C@H](CC(C)C)NC(=O)[C@H](C(C)C)N(C)C1=O",
    "Pgp AbA/analogue ratio": 1.7
  },
  {
    "compound": "CC[C@@H](C)[C@@H]1NC(=O)[C@@H]2CCCN2C(=O)[C@H](Cc2ccccc2)N(C)C(=O)[C@H](Cc2ccccc2)NC(=O)[C@H](C(C)C)N(C)C(=O)[C@@H]([C@@H](C)CC)OC(=O)[C@H]([C@H](C)CO)N(C)C(=O)[C@H](CC(C)C)NC(=O)[C@H](C(C)C)N(C)C1=O",
    "Pgp AbA/analogue ratio": 2.1
  }
]
